Overview of recorded IC50 for various molecules
Target: rat MASP1 (Rattus norvegicus)
Construct: Ig-kappa secretion signal (N, cleaved yes)
Sequence (Q8CHN8 302-453 limits assumed): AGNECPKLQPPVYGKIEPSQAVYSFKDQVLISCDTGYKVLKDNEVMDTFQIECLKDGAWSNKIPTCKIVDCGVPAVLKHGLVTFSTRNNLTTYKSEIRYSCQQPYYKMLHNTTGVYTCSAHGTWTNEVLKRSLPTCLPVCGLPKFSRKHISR
Sequence (Q8CHN8 454-704 limits assumed): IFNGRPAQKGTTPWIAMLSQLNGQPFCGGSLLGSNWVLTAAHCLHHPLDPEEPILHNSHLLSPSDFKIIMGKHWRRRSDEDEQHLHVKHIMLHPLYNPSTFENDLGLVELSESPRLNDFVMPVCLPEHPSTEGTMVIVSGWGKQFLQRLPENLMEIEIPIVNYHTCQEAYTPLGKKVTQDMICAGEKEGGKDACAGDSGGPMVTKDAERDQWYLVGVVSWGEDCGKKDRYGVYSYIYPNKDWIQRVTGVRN
Assay: Biochemical rat MASP1 assay (FRET substrate)
Details: average IC50; recombinant rat MASP1, FRET substrate
Bridge positions count the residues as written; N and C are the ends. Square brackets hold non-standard residues; d marks the D form. Peptide text beside a SMILES is read from it. * marks the point of attachment. PEG9 = NCCOCCOCCOCCOCCOCCOCCOCCOCCOCCC(=O)O; Oic = O=C(O)[C@@H]1C[C@@H]2CCCC[C@@H]2N1; tBuAla = CC(C)(C)C[C@H](N)C(=O)O; Pen = CC(C)(S)[C@H](N)C(=O)O; NMeC = CN[C@@H](CS)C(=O)O; X2 = N[C@@H](CN*)C(=O)O; Sar = CNCC(=O)O

Req: Which IC50 is reported for this molecule? CC[C@H](C)[C@H](NC(=O)[C@H](C)N)C(=O)N[C@H]1CSSC[C@@H](C(=O)N[C@H](C(=O)N2CCC[C@H]2C(=O)N[C@@H](CC(=O)O)C(N)=O)[C@@H](C)CC)N(C)C(=O)[C@H]([C@@H](C)CC)NC(=O)[C@@H]2CCCN2C(=O)[C@@H]2CCCN2C(=O)[C@H](CC(C)(C)C)NC(=O)[C@H](CO)NC(=O)[C@H](CCCNC(=N)N)NC(=O)[C@H](CO)NC1=O [Example 48, AIC+SRS-((tBu)A)-PPI-((N-Me)C)+IPD-NH2] (H-AICSRS[tBuAla]PPI[NMeC]IPD-NH2; disulfide 3-11)
Resp: 51.5 nM

Req: Which IC50 is reported for this molecule? CC[C@H](C)[C@H](NC(=O)CNC)C(=O)N[C@H]1CSSC(C)(C)[C@@H](C(=O)N[C@H](C(=O)N2CCC[C@H]2C(N)=O)[C@@H](C)CC)NC(=O)[C@H]([C@@H](C)CC)NC(=O)[C@@H]2C[C@@H]3CCCC[C@@H]3N2C(=O)[C@@H]2CCCN2C(=O)[C@H](CC(C)C)NC(=O)[C@H](CO)NC(=O)[C@H](CCCNC(=N)N)NC(=O)[C@H](CO)NC1=O [Example 109, ((N-Me)G)-IC+SRSLP-(Oic)-I-(Pen)+IP-NH2] (H-[Sar]ICSRSLP[Oic]I[Pen]IP-NH2; disulfide 3-11)
Resp: 76 nM

Req: Which IC50 is reported for this molecule? CC[C@H](C)[C@H](NC(=O)CNC)C(=O)N[C@H]1CSSC(C)(C)[C@@H](C(=O)N[C@H](C(=O)N2CCC[C@H]2C(=O)NCCOCCOCCOCCOCCOCCOCCOCCOCCOCCC(N)=O)[C@@H](C)CC)NC(=O)[C@H]([C@@H](C)CC)NC(=O)[C@@H]2CCCN2C(=O)[C@@H]2CCCN2C(=O)[C@H](CC(C)(C)C)NC(=O)[C@H](CO)NC(=O)[C@H](CCCNC(=N)N)NC(=O)[C@H](CO)NC1=O [Example 44] (H-[Sar]ICSRS[tBuAla]PPI[Pen]IP[PEG9]-NH2; disulfide 3-11)
Resp: 87 nM

Req: Which IC50 is reported for this molecule? [2H][C@@H]1[C@H]([2H])CN2C(=O)[C@H](CC(C)C)NC(=O)[C@H](CO)NC(=O)[C@H](CCCNC(=N)N)NC(=O)[C@H](CO)NC(=O)[C@@H](NC(=O)[C@@H](NC(=O)[C@H](C)N)[C@@H](C)CC)CSSC(C)(C)[C@@H](C(=O)N[C@H](C(=O)N3CCC[C@H]3C(=O)N[C@@H](CC(=O)O)C(=O)O)[C@@H](C)CC)NC(=O)[C@H]([C@@H](C)CC)NC(=O)[C@@H]3C[C@@H]4CCCC[C@@H]4N3C(=O)[C@H]12
Resp: 10.9 nM

Req: Which IC50 is reported for this molecule? CC[C@H](C)[C@H](NC(=O)CNC)C(=O)N[C@H]1CSSC(C)(C)[C@@H](C(=O)N[C@H](C(=O)N2CCC[C@H]2C(=O)NC[C@H](N)C(=O)O)[C@@H](C)CC)NC(=O)[C@H]([C@@H](C)CC)NC(=O)[C@@H]2C[C@@H]3CCCC[C@@H]3N2C(=O)[C@@H]2CCCN2C(=O)[C@H](CC(C)C)NC(=O)[C@H](CO)NC(=O)[C@H](CCCNC(=N)N)NC(=O)[C@H](CO)NC1=O [Example 467] (H-[Sar]ICSRSLP[Oic]I[Pen]IP-X2; disulfide 3-11)
Resp: 170 nM
